Test system: Hepatotoxicity
Experiment: FDA HLAED, lactate dehydrogenase (LDH) increase
Settings: human
Here the recorded LDH Increase - Index Value is given for each entry.
# output: bare number, no unit

compound	tested-system	endpoint-result
COCCCC/C(=N\OCCN)c1ccc(C(F)(F)F)cc1	Hepatotoxicity	2.1
CC(C)C[C@H]1C(=O)N2CCC[C@H]2[C@]2(O)O[C@](NC(=O)[C@@H]3C=C4c5cccc6[nH]c(Br)c(c56)C[C@H]4N(C)C3)(C(C)C)C(=O)N12	Hepatotoxicity	0

q: Can you look up the measured LDH Increase - Index Value of "Nc1nc(F)nc2c1ncn2[C@@H]1O[C@H](CO)[C@@H](O)[C@@H]1O" for me?
a: 18.3

q: Can you look up the measured LDH Increase - Index Value of O=C(O)COCCN1CCN(C(c2ccccc2)c2ccc(Cl)cc2)CC1 (centres undefined) for me?
a: 1

---

Tested on: Hepatotoxicity
Assay: FDA HLAED, serum glutamic oxaloacetic transaminase (SGOT) increase
Conditions: human
attribute-measured: SGOT Increase - Number of Reports

Below are worked cases with known answers.
compound	SGOT Increase - Number of Reports
Cn1c(=O)c2[nH]cnc2n(C)c1=O.O [THEOPHYLLINE]	< 4
CN(N=O)C(=O)N[C@@H](C=O)[C@@H](O)[C@H](O)[C@H](O)CO [STREPTOZOCIN]	< 4
CN1C(C(=O)Nc2ccccn2)=C(O)c2ccccc2S1(=O)=O [PIROXICAM]	>= 4
CC(=O)Oc1c(C)cc(OCC(O)CNC(C)C)c(C)c1C (stereo not given) [METIPRANOLOL]	< 4
O=C1CC2(CCCC2)CC(=O)N1CCCCN1CCN(c2ncccn2)CC1 [BUSPIRONE]	>= 4

We now examine a further compound.
q: Short answer please: SGOT Increase - Number of Reports, Hepatotoxicity, entry C[C@]12CC[C@@H]3c4ccc(OC(=O)Cc5ccc(N(CCCl)CCCl)cc5)cc4CC[C@H]3[C@@H]1CC[C@@H]2OC(=O)Cc1ccc(N(CCCl)CCCl)cc1 [ESTRADIOL MUSTARD]
a: < 4

---

Here the recorded LDH Increase - Index Value is given for each entry.
Test system: Hepatotoxicity
Assay: FDA HLAED, lactate dehydrogenase (LDH) increase
Settings: human

compound	endpoint-result
CCCCCCC(=O)O[C@H]1CC[C@H]2[C@@H]3CCC4=CC(=O)CC[C@]4(C)[C@H]3CC[C@]12C [TESTOSTERONE ENANTHATE]	2.4

q: Can you look up the measured LDH Increase - Index Value of COc1ccc(OC)c(C(O)CNC(=O)CN)c1 (centres undefined) for me?
a: 0

q: Can you look up the measured LDH Increase - Index Value of "CCOC(=O)[C@H](CCc1ccccc1)N[C@@H](C)C(=O)N1Cc2ccccc2C[C@H]1C(=O)O" for me?
a: 0.4

---

System: Hepatotoxicity
Test: FDA HLAED, lactate dehydrogenase (LDH) increase
Conditions: human
attribute-measured: LDH Increase - Index Value
# output: bare number, no unit

compound	tested-system	LDH Increase - Index Value
COC(=O)CCc1ccc(OCC(O)CNC(C)C)cc1 (stereo not drawn)	Hepatotoxicity	4.6

q: Can you look up the measured LDH Increase - Index Value of CC(NC(C)(C)C)C(=O)c1cccc(Cl)c1 (stereo not drawn) for me?
a: 0

q: Can you look up the measured LDH Increase - Index Value of "O=c1n(CCCN2CCN(c3cccc(Cl)c3)CC2)nc2ccccn12" for me?
a: 0.3

q: Can you look up the measured LDH Increase - Index Value of "O=C1NC(c2ccccc2)(c2ccccc2)C(=O)N1COP(=O)(O)O" for me?
a: 0

q: Can you look up the measured LDH Increase - Index Value of "CC[C@@]1(O)C(=O)OCc2c1cc1n(c2=O)Cc2cc3c(CN(C)C)c(O)ccc3nc2-1" for me?
a: 11.6

q: Can you look up the measured LDH Increase - Index Value of "Cc1cn([C@H]2C=C[C@@H](CO)O2)c(=O)[nH]c1=O" for me?
a: 1.8

q: Can you look up the measured LDH Increase - Index Value of COc1ccc(CC2c3cc(OC)c(OC)cc3CC[N+]2(C)CCC(=O)OCCCCCOC(=O)CC[N+]2(C)CCc3cc(OC)c(OC)cc3C2Cc2ccc(OC)c(OC)c2)cc1OC (stereo not drawn) for me?
a: 0

q: Can you look up the measured LDH Increase - Index Value of CC(C)NCC(O)COc1cccc2[nH]ccc12 (stereo not drawn) for me?
a: 0.7

q: Can you look up the measured LDH Increase - Index Value of "COc1ccc2cc(CCC(C)=O)ccc2c1" for me?
a: 0.3

q: Can you look up the measured LDH Increase - Index Value of "N=C(N)N/N=C/c1c(Cl)cccc1Cl" for me?
a: 0.3

q: Can you look up the measured LDH Increase - Index Value of "C[C@H](CCC(=O)O)[C@H]1CC[C@H]2[C@@H]3[C@@H](O)C[C@@H]4C[C@H](O)CC[C@]4(C)[C@H]3CC[C@]12C" for me?
a: 4.8

q: Can you look up the measured LDH Increase - Index Value of COc1cc(CC2c3c(cc(OC)c(OC)c3OC)CC[N+]2(C)CCCOC(=O)CCC(=O)OCCC[N+]2(C)CCc3cc(OC)c(OC)c(OC)c3C2Cc2cc(OC)c(OC)c(OC)c2)cc(OC)c1OC.[Cl-].[Cl-] (stereo not drawn) [DOXACURIUM CHLORIDE] for me?
a: 0

q: Can you look up the measured LDH Increase - Index Value of CC(C)NCC(O)COc1ccc(CCOCC2CC2)cc1 (stereo not drawn) for me?
a: 0

q: Can you look up the measured LDH Increase - Index Value of "Cc1cc(C2CCCCC2)n(O)c(=O)c1" for me?
a: 0

q: Can you look up the measured LDH Increase - Index Value of "OC[C@H]1O[C@@H](n2cnc3c2NC=NC[C@H]3O)C[C@@H]1O" for me?
a: 0

q: Can you look up the measured LDH Increase - Index Value of CCCCNc1cc(C(=O)O)cc(S(N)(=O)=O)c1Oc1ccccc1 [BUMETANIDE] for me?
a: 0

q: Can you look up the measured LDH Increase - Index Value of CC1Cc2ccccc2N1NC(=O)c1ccc(Cl)c(S(N)(=O)=O)c1 (stereo not drawn) [INDAPAMIDE] for me?
a: 0.5

q: Can you look up the measured LDH Increase - Index Value of COC(=O)C1=C(C)NC(C)=C(C(=O)OCC(C)C)C1c1ccccc1[N+](=O)[O-] (stereo not drawn) for me?
a: 0
